As shown below, each of these binders has a reported pKd value.
Target: T1, human IL-25 expressed with a C-terminal myc-myc-hexahistidine tag (human)
T1 construct: also called human IL-25-MMH; hIL-25-MMH
T1 chain: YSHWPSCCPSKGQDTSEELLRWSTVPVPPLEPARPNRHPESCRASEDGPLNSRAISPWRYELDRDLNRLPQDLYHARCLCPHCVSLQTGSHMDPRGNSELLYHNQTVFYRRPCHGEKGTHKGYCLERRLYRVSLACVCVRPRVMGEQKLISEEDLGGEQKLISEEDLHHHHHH
Experiment: SPR Biacore, captured mAb, 25°C;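 also: biacore 4000 SPR with IL-25-MMH as analyte over purified anti-IL-25 antibodies, association and dissociation rates derived from fitting sensorgrams to a 1:1 binding model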
pKd: −log10 of the molar value.
property-label: pKd

[[record]]
binder = "H4H10907P (antibody, human IgG4, V domains shown) VH: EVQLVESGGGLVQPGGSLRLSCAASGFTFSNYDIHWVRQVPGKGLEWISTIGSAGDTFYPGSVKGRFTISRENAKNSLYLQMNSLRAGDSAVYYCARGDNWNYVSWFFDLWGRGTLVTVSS VL: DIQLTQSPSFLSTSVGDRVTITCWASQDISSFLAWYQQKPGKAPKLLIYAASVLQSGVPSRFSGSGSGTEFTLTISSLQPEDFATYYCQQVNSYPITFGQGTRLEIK"
val = 10.05

[[record]]
binder = "H4H10897P (antibody, human IgG4, V domains shown) VH: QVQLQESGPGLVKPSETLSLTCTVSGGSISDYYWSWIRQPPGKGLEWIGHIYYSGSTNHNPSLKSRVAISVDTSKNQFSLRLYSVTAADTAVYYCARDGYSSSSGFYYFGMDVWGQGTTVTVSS VL: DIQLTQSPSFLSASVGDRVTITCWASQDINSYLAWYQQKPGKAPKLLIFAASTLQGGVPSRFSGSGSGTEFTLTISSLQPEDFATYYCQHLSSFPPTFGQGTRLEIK"
val = 9.90

[[record]]
binder = "H4H10871P (antibody, human IgG4, V domains shown) VH: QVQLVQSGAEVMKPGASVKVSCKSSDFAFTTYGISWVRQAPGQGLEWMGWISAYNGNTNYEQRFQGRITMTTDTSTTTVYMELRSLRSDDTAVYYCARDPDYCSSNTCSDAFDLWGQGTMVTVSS VL: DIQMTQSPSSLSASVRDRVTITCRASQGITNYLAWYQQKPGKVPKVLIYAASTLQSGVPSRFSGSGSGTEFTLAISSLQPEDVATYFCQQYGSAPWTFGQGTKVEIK"
val = 10.07

